These entries and their values trace back to ChEMBL document CHEMBL3425479.

molecular target: Mu-type opioid receptor (Homo sapiens, UniProt P35372); assay: Positive allosteric modulation of human mu opioid receptor-1 expressed in CHO cells assessed as potentiation of endomorphin 1-induced response after 90 mins by beta-arrestin recruitment assay
Sequence (P35372 whole entry): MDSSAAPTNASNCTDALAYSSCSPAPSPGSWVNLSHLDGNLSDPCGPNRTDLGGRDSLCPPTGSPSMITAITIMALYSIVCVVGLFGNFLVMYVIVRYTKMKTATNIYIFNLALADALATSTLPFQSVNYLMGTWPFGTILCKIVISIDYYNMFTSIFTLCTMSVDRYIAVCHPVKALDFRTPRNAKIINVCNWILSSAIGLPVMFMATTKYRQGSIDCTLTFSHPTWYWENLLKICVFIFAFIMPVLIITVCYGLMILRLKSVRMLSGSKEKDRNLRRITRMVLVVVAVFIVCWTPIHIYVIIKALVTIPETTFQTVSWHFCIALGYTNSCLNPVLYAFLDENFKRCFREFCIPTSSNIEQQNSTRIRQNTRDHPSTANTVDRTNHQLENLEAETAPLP
Listing of entries alongside the reported EC50.

# annotated cases, reported EC50 shown
{"columns": ["smi", "EC50"],
 "data": [
  ["CC1(C)CC(=O)C2=C(C1)OC1=C(C(=O)CC(C)(C)C1)C2c1ccc(OCc2ccccc2OC(F)(F)F)cc1", "2 µM"],
  ["CC1(C)CC(=O)C2=C(C1)OC1=C(C(=O)CC(C)(C)C1)C2c1ccc(OCc2cccc(F)c2)cc1", "7 µM"]
]}

Input line: Returns the measured EC50 for the input compound. Input: CC1(C)CC(=O)C2=C(C1)OC1=C(C(=O)CC(C)(C)C1)C2c1ccc(OCc2ccccc2C(F)(F)F)cc1
Output line: > 10 µM

Input line: Returns the measured EC50 for the input compound. Input: Cc1ccc(COc2ccc(C3C4=C(CC(C)(C)CC4=O)OC4=C3C(=O)CC(C)(C)C4)cc2)cc1
Output line: 4 µM

====

target: Delta-type opioid receptor (Homo sapiens, UniProt P41143); test: Positive allosteric modulation of human delta opioid receptor-1 expressed in CHO cells assessed as potentiation of leu-enkephalin-induced response after 90 mins by beta-arrestin recruitment assay
Sequence (P41143 whole entry): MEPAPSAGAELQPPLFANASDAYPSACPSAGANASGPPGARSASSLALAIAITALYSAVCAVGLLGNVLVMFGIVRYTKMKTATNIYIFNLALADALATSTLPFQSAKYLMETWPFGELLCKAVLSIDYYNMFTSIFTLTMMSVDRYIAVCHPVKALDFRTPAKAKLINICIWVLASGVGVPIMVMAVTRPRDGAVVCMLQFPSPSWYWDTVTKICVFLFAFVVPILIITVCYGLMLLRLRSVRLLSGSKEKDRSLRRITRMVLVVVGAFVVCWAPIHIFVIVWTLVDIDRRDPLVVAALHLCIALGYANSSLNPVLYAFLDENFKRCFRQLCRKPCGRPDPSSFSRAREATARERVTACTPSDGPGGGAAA
Listing of entries alongside the reported pEC50.
Quick note: pEC50 means taking -log10 of the concentration in moles per liter.

# annotated cases, reported pEC50 shown
{"columns": ["smi", "pEC50"],
 "data": [
  ["Cc1cccc(COc2ccc(C3C4=C(CC(C)(C)CC4=O)OC4=C3C(=O)CC(C)(C)C4)cc2)c1", 6.70],
  ["CC1(C)CC(=O)C2=C(C1)OC1=C(C(=O)CC(C)(C)C1)C2c1ccc(OCc2ccccc2OC(F)(F)F)cc1", 6.52],
  ["CC1(C)CC(=O)C2=C(C1)OC1=C(C(=O)CC(C)(C)C1)C2c1ccc(OCc2ccccc2OC(F)F)cc1", 6.70],
  ["CC1(C)CC(=O)C2=C(C1)OC1=C(C(=O)CC(C)(C)C1)C2c1ccc(OCc2ccc(F)cc2)cc1", 7.00],
  ["CC1(C)CC(=O)C2=C(C1)OC1=C(C(=O)CC(C)(C)C1)C2c1ccc(OCc2ccccc2CO)cc1", 6.00]
]}

Input line: Returns the measured pEC50 for the input compound. Input: CC1(C)CC(=O)C2=C(C1)OC1=C(C(=O)CC(C)(C)C1)C2c1ccc(OCc2ccccc2Cl)cc1
Output line: 6.52

Input line: Returns the measured pEC50 for the input compound. Input: CC1(C)CC(=O)C2=C(C1)OC1=C(C(=O)CC(C)(C)C1)C2c1ccc(OCc2ccccc2Br)cc1
Output line: 7.30

Input line: Returns the measured pEC50 for the input compound. Input: CC1(C)CC(=O)C2=C(C1)OC1=C(C(=O)CC(C)(C)C1)C2c1ccc(OCc2ccccc2S(C)(=O)=O)cc1
Output line: 6.05

====

tested on: CHO; experiment: Selectivity ratio of EC50 for human mu opioid receptor-1 expressed in CHO cells to EC50 for human delta opioid receptor-1 expressed in CHO cells; format: cell-based
Listing of entries alongside the reported Ratio EC50.
Could you keep your reply to the number by itself?

{"columns": ["smi", "property measured", "measured number"],
 "data": [
  ["Cc1ccc(COc2ccc(C3C4=C(CC(C)(C)CC4=O)OC4=C3C(=O)CC(C)(C)C4)cc2)cc1", "Ratio EC50", 13],
  ["CC1(C)CC(=O)C2=C(C1)OC1=C(C(=O)CC(C)(C)C1)C2c1ccc(OCc2ccccc2S(C)(=O)=O)cc1", "Ratio EC50", 6],
  ["Cc1cccc(COc2ccc(C3C4=C(CC(C)(C)CC4=O)OC4=C3C(=O)CC(C)(C)C4)cc2)c1", "Ratio EC50", 15]
]}

Input line: Form field: Ratio EC50 recorded for CC1(C)CC(=O)C2=C(C1)OC1=C(C(=O)CC(C)(C)C1)C2c1ccc(OCc2ccccc2OC(F)(F)F)cc1 with CHO (enter value)
Output line: 7

Input line: Form field: Ratio EC50 recorded for CC1(C)CC(=O)C2=C(C1)OC1=C(C(=O)CC(C)(C)C1)C2c1ccc(OCc2ccccc2OC(F)F)cc1 with CHO (enter value)
Output line: 15

Input line: Form field: Ratio EC50 recorded for CC1(C)CC(=O)C2=C(C1)OC1=C(C(=O)CC(C)(C)C1)C2c1ccc(OCc2ccccc2)cc1 with CHO (enter value)
Output line: 30

Input line: Form field: Ratio EC50 recorded for CC1(C)CC(=O)C2=C(C1)OC1=C(C(=O)CC(C)(C)C1)C2c1ccc(OCc2cccc(F)c2)cc1 with CHO (enter value)
Output line: 7

Input line: Form field: Ratio EC50 recorded for CC1(C)CC(=O)C2=C(C1)OC1=C(C(=O)CC(C)(C)C1)C2c1ccc(OCc2ccccc2CO)cc1 with CHO (enter value)
Output line: 10
